Where do the numbers come from? From ChEMBL document CHEMBL1156777.

test system: L6; test: Cytotoxicity against rat L6 cells after 70 hrs by alamar blue assay; assay type: cell-based; conditions: L6, 70 h
Below, each of the compounds is paired with its reported IC50 value.

Examples from the recorded data:
COc1ccc(C(=N)NC(C)C)cc1-n1cc(-c2ccc(C(=N)NC(C)C)cc2)nn1    > 173 µM
N=C(N)c1ccc(-c2cn(-c3cc(C(=N)N)ccc3O)nn2)cc1    > 203 µM

[Q] Any idea what IC50 was measured for COc1ccc(C2=NCCN2)cc1-n1cc(-c2ccc(C3=NCCN3)cc2)nn1 ?
[A] > 170 µM

[Q] Any idea what IC50 was measured for COc1ccc(C(=N)N)cc1-n1cc(-c2cccc(C(=N)N)c2)nn1.Cl.Cl ?
[A] > 224 µM

###

test system: Trypanosoma brucei rhodesiense; assay: Antitrypanosomal activity against Trypanosoma brucei rhodesiense STIB900 after 70 hrs by alamar blue assay; format: functional, organism-based; settings: STIB900, 70 h
pIC50: −log10 of the molar value.
Please mark true if the recorded pIC50 is equal to or greater than 5, and false if it falls below.

Answered examples (3):
Oc1cc(C2=NCCN2)ccc1-n1cc(-c2ccc(C3=NCCN3)cc2)nn1    true
CC(C)NC(=N)c1cccc(-c2cn(-c3cccc(C(=N)NC(C)C)c3)nn2)c1    false
COc1ccc(C(=N)N)cc1-n1cc(-c2cccc(C(=N)N)c2)nn1.Cl.Cl    true

From here, focus on the item given below.
[Q] pIC50 >= 5 for N=C(N)c1cccc(-c2cn(-c3cc(C(=N)N)ccc3O)nn2)c1 ?
[A] false

###

tested on: Trypanosoma brucei rhodesiense; test: Antitrypanosomal activity against Trypanosoma brucei rhodesiense STIB900 after 70 hrs by alamar blue assay; assay type: functional, organism-based; conditions: STIB900, 70 h
Below, each of the compounds is paired with its reported log10(IC50) value.
# values: log10(IC50), units nM

Examples from the recorded data:
Cl.Cl.c1cc(-c2cn(-c3ccc(C4=NCCN4)cc3)nn2)ccc1C1=NCCN1    1.72
CC(C)NC(=N)c1cccc(-c2cn(-c3ccc(C(=N)NC(C)C)cc3O)nn2)c1    4.27
COc1ccc(C(=N)NC(C)C)cc1-n1cc(-c2ccc(C(=N)NC(C)C)cc2)nn1    2.65
CC(C)NC(=N)c1ccc(-c2cn(-c3ccc(C(=N)NC(C)C)cc3)nn2)cc1.Cl.Cl    2.30

[Q] Any idea what log10(IC50) was measured for COc1cc(C2=NCCN2)ccc1-c1cn(-c2ccc(C3=NCCN3)cc2)nn1 ?
[A] 2.06

###

assay: Selectivity index, ratio of IC50 for rat L6 cells to IC50 for Plasmodium falciparum K1; type: toxicity, cell-based; settings: read-out: Ratio IC50
Below, each of the compounds is paired with its reported selectivity ratio value.
Keep the answer to the number alone.

Cl.Cl.N=C(N)c1ccc(-c2cn(-c3ccc(C(=N)N)cc3)nn2)cc1    4050

[Q] Any idea what selectivity ratio was measured for c1cc(C2=NCCN2)cc(-c2cn(-c3ccc(C4=NCCN4)cc3)nn2)c1 ?
[A] 1510

###

experiment: Selectivity index, ratio of IC50 for rat L6 cells to IC50 for Plasmodium falciparum K1; assay type: toxicity, cell-based; conditions: read-out: Ratio IC50
Below, each of the compounds is paired with its reported selectivity ratio value.

Examples from the recorded data:
N=C(N)c1ccc(-c2cn(-c3ccc(C(=N)N)cc3O)nn2)cc1    > 1270
CC(C)NC(=N)c1cccc(-c2cn(-c3cccc(C(=N)NC(C)C)c3)nn2)c1    > 1560
N=C(N)c1ccc(-c2cn(-c3cc(C(=N)N)ccc3O)nn2)cc1    > 165
Cl.Cl.N=C(N)c1ccc(-n2cc(-c3cc(C(=N)N)ccc3O)nn2)cc1    > 9960

Continue with the next compound.
[Q] Any idea what selectivity ratio was measured for COc1ccc(C2=NCCN2)cc1-c1cn(-c2ccc(C3=NCCN3)cc2)nn1.Cl.Cl ?
[A] > 18800
